- system-under-test: protein kinase C
- method-summary: Protein kinase C inhibition in vitro
- condition-details: in vitro
value-kind: pIC50
Answers are plain numbers, as −log10 of the molar value.

Data request: Find the recorded pIC50 belonging to CCSCc1ccc2c(c1)c1c3c(c4c5cc(CSCC)ccc5n5c4c1n2C1CC(O)(C(=O)OC)C5(C)O1)CNC3=O (stereo not shown) [Compound A] and report it.
Data returned: 4.80
